# measured-target: Peregrin (Homo sapiens) (UniProt P55201)
# Sequence (P55201 whole entry): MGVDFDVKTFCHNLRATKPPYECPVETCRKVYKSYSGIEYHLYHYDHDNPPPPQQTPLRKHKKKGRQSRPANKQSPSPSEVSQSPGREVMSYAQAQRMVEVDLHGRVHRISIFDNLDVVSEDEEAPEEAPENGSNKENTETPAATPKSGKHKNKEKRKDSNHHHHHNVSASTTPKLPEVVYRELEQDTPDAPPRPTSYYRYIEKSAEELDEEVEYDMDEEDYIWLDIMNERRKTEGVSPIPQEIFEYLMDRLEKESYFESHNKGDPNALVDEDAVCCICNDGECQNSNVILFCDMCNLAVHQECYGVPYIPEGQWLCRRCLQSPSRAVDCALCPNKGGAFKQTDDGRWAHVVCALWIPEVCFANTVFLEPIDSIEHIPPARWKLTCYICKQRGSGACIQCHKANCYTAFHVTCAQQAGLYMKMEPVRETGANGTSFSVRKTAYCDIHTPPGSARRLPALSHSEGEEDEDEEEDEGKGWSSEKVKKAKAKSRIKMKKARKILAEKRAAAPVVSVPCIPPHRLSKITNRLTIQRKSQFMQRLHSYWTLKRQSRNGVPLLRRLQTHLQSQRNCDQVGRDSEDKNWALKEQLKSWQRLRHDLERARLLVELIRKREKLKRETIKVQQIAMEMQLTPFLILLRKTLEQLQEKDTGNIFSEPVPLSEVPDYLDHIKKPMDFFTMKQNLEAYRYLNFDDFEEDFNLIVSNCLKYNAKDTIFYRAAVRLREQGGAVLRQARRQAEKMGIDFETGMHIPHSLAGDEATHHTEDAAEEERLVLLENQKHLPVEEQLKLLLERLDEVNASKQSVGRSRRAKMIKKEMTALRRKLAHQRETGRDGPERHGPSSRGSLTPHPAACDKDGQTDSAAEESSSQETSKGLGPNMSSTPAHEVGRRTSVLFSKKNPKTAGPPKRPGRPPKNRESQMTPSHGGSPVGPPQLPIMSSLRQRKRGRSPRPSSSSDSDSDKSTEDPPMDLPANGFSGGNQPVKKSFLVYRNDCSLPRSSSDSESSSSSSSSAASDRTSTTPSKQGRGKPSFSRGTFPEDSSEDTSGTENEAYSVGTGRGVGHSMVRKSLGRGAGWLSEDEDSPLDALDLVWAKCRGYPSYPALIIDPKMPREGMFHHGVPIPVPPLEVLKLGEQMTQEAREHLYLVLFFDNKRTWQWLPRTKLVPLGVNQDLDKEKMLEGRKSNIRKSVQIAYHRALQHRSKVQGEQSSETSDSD
# test-settings: Compound concentration 20.0 uM, Protein concentration 2.0 uM, Result type QC Liability
Is ΔTm at least -0.8 °C? Then true (1). If not, false (0).

Check out these entries, answers already filled in.
CS(=O)(=O)NC(=O)CCC/C=C\C[C@H]1C(=O)C[C@@H](O)[C@@H]1/C=C/[C@@H](O)COc1ccccc1	false (0)
C=CC1C[C@]1(NC(=O)[C@@H]1C[C@@H](Oc2cc(-c3csc(NC(=O)C(C)C)n3)nc3c(Br)c(OC)ccc23)CN1C(=O)[C@@H](NC(=O)OC1CCCC1)C(C)(C)C)C(=O)O (some centres undefined)	false (0)
COc1ccc(-c2csc(NC(=O)[C@H]3CCCCN3S(=O)(=O)c3ccc(C)cc3)n2)cc1	false (0)
NC(=O)C1CCCc2c1[nH]c1ccc(Cl)cc21 (centres undefined)	true (1)
CN(C)CCCNc1ccnc(Nc2cccc(Cl)c2)n1	false (0)
O=C1NC(=NCc2cccs2)SC1=Cc1ccc2ncccc2c1	false (0)
CCOC(=O)/N=C(\N)c1ccc(OCc2cccc(COc3ccc(C(C)(C)c4ccc(OC(=O)OCC)cc4)cc3)c2)cc1	false (0)
O=C1COc2cc(C(=O)N(Cc3ccc(C(=O)Nc4ccncn4)cc3)C3CC3)ccc2N1	true (1)

Kindly consider the entry below.
[in] Please check the record COc1c(-c2cn(C3CCC(=O)NC3=O)nn2)csc1C(=O)N1CCCC1 (centres undefined) and state if its ΔTm is at or above -0.8 °C.
[out] false (0)
